Just for reference, ChEMBL document CHEMBL1140353 is where these values come from.

Method summary: Oral absorption of 20 mg/kg tested in rat
Type: ADME, organism-based
Design: dose 20 mg/kg
Setup conditions: in vivo, read-out: Absorption
Endpoint: Fa

Sample O=C1CC[C@](CCN2CC(N3CCC(F)CC3)C2)(c2ccc(Cl)c(Cl)c2)CN1CC1CCC(F)(F)CC1 — what was its Fa?
> 80%

====

Target desc: Substance-P receptor (Homo sapiens, UniProt P25103)
Sequence (P25103 whole entry): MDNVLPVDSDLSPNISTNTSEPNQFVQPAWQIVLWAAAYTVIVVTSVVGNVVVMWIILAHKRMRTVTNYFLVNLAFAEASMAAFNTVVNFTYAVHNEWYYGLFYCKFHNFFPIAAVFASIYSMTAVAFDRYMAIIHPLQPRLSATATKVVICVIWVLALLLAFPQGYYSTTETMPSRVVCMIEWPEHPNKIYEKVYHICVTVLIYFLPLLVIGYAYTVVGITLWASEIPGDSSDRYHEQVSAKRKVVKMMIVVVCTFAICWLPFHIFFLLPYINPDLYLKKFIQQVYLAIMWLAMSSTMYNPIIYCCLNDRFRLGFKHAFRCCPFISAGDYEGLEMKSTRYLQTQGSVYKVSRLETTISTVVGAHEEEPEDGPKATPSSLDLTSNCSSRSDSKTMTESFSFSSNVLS
Method summary: Inhibitory concentration for Tachykinin 1 receptor of human IM9 cells
pIC50: −log10 of the molar value.
Endpoint: pIC50

Fill in: pIC50 of O=C1CC[C@](CCN2CC(N3CCC(F)CC3)C2)(c2ccc(Cl)c(Cl)c2)CN1CC1CCC(F)(F)CC1 is ___
< 5.00
